System: Vero cells
Details: Vero cells, 10 μM; 1 = DMSO-treated infected cells
Where a name gives a salt, the structure may show the parent alone.
readout: PrestoBlue relative viability

compound	result.number
CC(C)C(=O)OCC(=O)[C@@]12O[C@H](C3CCCCC3)O[C@@H]1C[C@H]1[C@@H]3CCC4=CC(=O)C=C[C@]4(C)[C@H]3[C@@H](O)C[C@@]12C [Ciclesonide]	0.5125
CCCCCCCCCCCCCCCC[N+](C)(C)CCN(Cc1ccc(OC)cc1)c1ncccn1 [Thonzonium Bromide]	0.6049
N[C@@H](CC(=O)N1CCn2c(nnc2C(F)(F)F)C1)Cc1cc(F)c(F)cc1F [Sitagliptin phosphate monohydrate]	2.5607
O=C(/C=C/c1cccc(S(=O)(=O)Nc2ccccc2)c1)NO	0.895
CC(=O)[C@]1(O)Cc2c(O)c3c(c(O)c2[C@@H](O[C@H]2C[C@H](N)[C@H](O)[C@H](C)O2)C1)C(=O)c1ccccc1C3=O [Idarubicin HCl]	0.5406
Cc1cc(Nc2cc(CN3CCOCC3)c3nc(C)c(Cc4ccc(Cl)cc4F)n3n2)n[nH]1	0.7859
CCN1C[C@H](C)n2c(c(O)c3c(=O)n(Cc4ccc(F)c(Cl)c4)nc(C(=O)NC)c32)C1=O	2.267
